Test system: P12-Ichikawa
TEST METHOD NOTES: cell viability relative to DMSO control; higher = less cytotoxic
CONDITIONS USED: RPMI 5 mM glucose + 10% FBS; 48 h; 0.569 µM

>  <STRUCTURE SMILES STRING>
CC(=O)Nc1ccc([C@H](C)C(=O)Nc2ncc(C(C)C)s2)cc1

>  <TARGET DESC>
P12-Ichikawa

>  <UNIT OF MEASUREMENT>
%

>  <cell viability>
97.6

$$$$
>  <STRUCTURE SMILES STRING>
CC(C)Oc1cc(Nc2nc(N[C@@H](C)c3ccc(F)cn3)ncc2Cl)n[nH]1

>  <TARGET DESC>
P12-Ichikawa

>  <UNIT OF MEASUREMENT>
%

>  <cell viability>
104

$$$$
>  <STRUCTURE SMILES STRING>
CC(=O)OCC(=O)[C@@]12\N=C(C)/O[C@@H]1C[C@H]3[C@@H]4CCC/5=C/C(=O)/C=C\[C@]5(C)[C@H]4[C@@H](O)C[C@]23C

>  <TARGET DESC>
P12-Ichikawa

>  <UNIT OF MEASUREMENT>
%

>  <cell viability>
115

$$$$
>  <STRUCTURE SMILES STRING>
CC(C)n1nc(-c2ccc3oc(N)nc3c2)c2c(N)ncnc21

>  <TARGET DESC>
P12-Ichikawa

>  <UNIT OF MEASUREMENT>
%

>  <cell viability>
51

$$$$

###

Reported cell viability values for a set of molecules
Test system: P12-Ichikawa
TEST METHOD NOTES: cell viability relative to DMSO control; higher = less cytotoxic
CONDITIONS USED: HPLM + 10% dialyzed FBS; 48 h; 0.0632 µM

>  <MOLECULE>
CCC[C@H](N[C@@H](C)C(=O)N1[C@H](C(=O)O)C[C@@H]2CCCC[C@@H]21)C(=O)OCC

>  <UNIT OF MEASUREMENT>
%

>  <cell viability>
104

$$$$
>  <MOLECULE>
COc1cc(Nc2ncc(F)c(Nc3ccc4c(n3)NC(=O)C(C)(C)O4)n2)cc(OC)c1OC

>  <UNIT OF MEASUREMENT>
%

>  <cell viability>
122

$$$$
>  <MOLECULE>
CC(C)(C)C(=O)OCOP(=O)(COCCn1cnc2c(N)ncnc21)OCOC(=O)C(C)(C)C

>  <UNIT OF MEASUREMENT>
%

>  <cell viability>
73.1

$$$$
>  <MOLECULE>
CC(=O)NC(CS)C(=O)O (configuration not stated)

>  <UNIT OF MEASUREMENT>
%

>  <cell viability>
91.3

$$$$
>  <MOLECULE>
CC(=O)C\1=C(/C)C2=CN=C(NC3=CC=C(C=N3)N4CCNCC4)N=C2N(C5CCCC5)C1=O

>  <UNIT OF MEASUREMENT>
%

>  <cell viability>
114

$$$$
>  <MOLECULE>
CC(=O)O[C@@]1(CC[C@H]2[C@@H]3\C=C(C)/C4=C/C(=O)CC[C@]4(C)[C@H]3CC[C@]12C)C(C)=O

>  <UNIT OF MEASUREMENT>
%

>  <cell viability>
109

$$$$
>  <MOLECULE>
Cc1cccc(-c2nn(C(=S)Nc3ccccc3)cc2-c2ccnc3ccccc23)n1

>  <UNIT OF MEASUREMENT>
%

>  <cell viability>
117

$$$$
>  <MOLECULE>
Oc1ccc(/C=C/c2cc(O)cc(O)c2)cc1

>  <UNIT OF MEASUREMENT>
%

>  <cell viability>
105

$$$$
>  <MOLECULE>
CN(C/C=C/C#CC(C)(C)C)Cc1cccc2ccccc12

>  <UNIT OF MEASUREMENT>
%

>  <cell viability>
105

$$$$
>  <MOLECULE>
CC1=CC=CC=C1CN2C(=O)C/3=C(/CCN(CC4=CC=CC=C4)C3)N\5CC\N=C25

>  <UNIT OF MEASUREMENT>
%

>  <cell viability>
119

$$$$
>  <MOLECULE>
C[C@@H](O)[C@@H]1[C@H]2[C@@H](C)\C(=C(/N2C1=O)C(=O)OCOC(=O)C(C)(C)C)SC3CN(C3)/C4=N/CCS4

>  <UNIT OF MEASUREMENT>
%

>  <cell viability>
112

$$$$
>  <MOLECULE>
C\C1=C\N([C@H]2C[C@H](N=[N+]=[N-])[C@@H](CO)O2)C(=O)NC1=O

>  <UNIT OF MEASUREMENT>
%

>  <cell viability>
111

$$$$
>  <MOLECULE>
Cc1ccc(O)c(C(CCN(C(C)C)C(C)C)c2ccccc2)c1.Cl (configuration not stated)

>  <UNIT OF MEASUREMENT>
%

>  <cell viability>
140

$$$$
>  <MOLECULE>
CC(=O)N1CCN(c2ccc(OC[C@H]3CO[C@](Cn4ccnc4)(c4ccc(Cl)cc4Cl)O3)cc2)CC1

>  <UNIT OF MEASUREMENT>
%

>  <cell viability>
108

$$$$
>  <MOLECULE>
COc1cc2c(Nc3ccc(Cl)c(Cl)c3F)ncnc2cc1OC[C@@H]1C[C@@H]2CN(C)C[C@@H]2C1

>  <UNIT OF MEASUREMENT>
%

>  <cell viability>
119

$$$$
>  <MOLECULE>
Cc1cc(Nc2nc(N[C@@H](C)c3ncc(F)cn3)ncc2Cl)n[nH]1

>  <UNIT OF MEASUREMENT>
%

>  <cell viability>
116

$$$$
>  <MOLECULE>
CC1(C)C(=O)N(CCN2CCC(C(=O)c3ccc(F)cc3)CC2)c2ccccc21

>  <UNIT OF MEASUREMENT>
%

>  <cell viability>
118

$$$$
